# key: entry, value: AC50
biological target: Alpha-2C adrenergic receptor (Homo sapiens); format: functional; further: assay procedure not described here
Sequence (P18825 whole entry): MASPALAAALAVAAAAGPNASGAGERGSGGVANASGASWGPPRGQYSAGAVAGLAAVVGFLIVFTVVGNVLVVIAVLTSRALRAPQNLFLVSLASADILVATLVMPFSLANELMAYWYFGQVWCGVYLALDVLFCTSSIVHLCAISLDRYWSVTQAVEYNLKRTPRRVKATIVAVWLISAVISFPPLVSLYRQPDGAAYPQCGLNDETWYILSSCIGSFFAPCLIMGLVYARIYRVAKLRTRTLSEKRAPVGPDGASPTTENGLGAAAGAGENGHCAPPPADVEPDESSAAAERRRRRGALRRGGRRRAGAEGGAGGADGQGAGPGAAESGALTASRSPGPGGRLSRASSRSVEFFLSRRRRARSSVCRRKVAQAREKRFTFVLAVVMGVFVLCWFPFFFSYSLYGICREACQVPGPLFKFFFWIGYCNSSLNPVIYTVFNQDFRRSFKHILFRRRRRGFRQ

compound	AC50
Clc1ccc2c(c1)C(c1ccccc1)=NCc1nncn1-2 [ESTAZOLAM]	> 10 µM
CCN(CC)C(=O)C1(c2ccccc2)CC1CN (centres undefined)	> 30 µM

**Q:** Looking for the measured AC50 of [H]/N=C(/N)N[C@H]1[C@H](O)[C@@H](O)[C@H](O[C@@H]2O[C@@H](C)[C@](O)(C=O)[C@H]2O[C@@H]2O[C@@H](CO)[C@H](O)[C@@H](O)[C@@H]2NC)[C@@H](N/C(N)=N\[H])[C@@H]1O [STREPTOMYCIN] , can you help?
**A:** > 30 µM

**Q:** Looking for the measured AC50 of COc1ccc2c(c1)[C@]13CCCC[C@@H]1[C@H](C2)N(C)CC3 [DEXTROMETHORPHAN] , can you help?
**A:** 11 µM

**Q:** Looking for the measured AC50 of CN(c1nccc(=O)[nH]1)C1CCN(c2nc3ccccc3n2Cc2ccc(F)cc2)CC1 [MIZOLASTINE] , can you help?
**A:** > 30 µM

**Q:** Looking for the measured AC50 of Cc1cc(CC(=O)O)n(C)c1C(=O)c1ccc(Cl)cc1 [ZOMEPIRAC] , can you help?
**A:** > 30 µM

**Q:** Looking for the measured AC50 of O=C1CN=C(c2ccccc2)c2cc(Cl)ccc2N1 [NORDAZEPAM] , can you help?
**A:** > 10 µM

**Q:** Looking for the measured AC50 of C=CC1=C(C(=O)O)N2C(=O)[C@@H](NC(=O)/C(=N\OCC(=O)O)c3csc(N)n3)[C@H]2SC1 [CEFIXIME] , can you help?
**A:** > 30 µM

**Q:** Looking for the measured AC50 of CCc1oc2ccccc2c1C(=O)c1cc(Br)c(O)c(Br)c1 [BENZBROMARONE] , can you help?
**A:** 26 µM

**Q:** Looking for the measured AC50 of CCC(=O)OCC(=O)[C@@]1(OC(=O)CC)[C@@H](C)C[C@H]2[C@@H]3CCC4=CC(=O)C=C[C@]4(C)[C@@]3(F)[C@@H](O)C[C@@]21C [BETAMETHASONE DIPROPIONATE] , can you help?
**A:** > 30 µM

**Q:** Looking for the measured AC50 of `N#Cc1ccccc1-c1cc(-c2ccccn2)cn(-c2ccccc2)c1=O` , can you help?
**A:** > 30 µM

**Q:** Looking for the measured AC50 of CCCN(CC)C(CC)C(=O)Nc1c(C)cccc1C (centres undefined) [ETIDOCAINE] , can you help?
**A:** > 30 µM

**Q:** Looking for the measured AC50 of CCN(CC)CC(=O)Oc1ccc(NC(C)=O)cc1 [PROPACETAMOL] , can you help?
**A:** > 30 µM

###

Measurement record for Endothelin-1 receptor (Homo sapiens, UniProt P25101); quantity recorded: AC50.

> print(dat)
                                   compound  quantity  endpoint.value
1  CNC(=O)Oc1ccc2c(c1)[C@]1(C)CCN(C)[C@@H]1N2C [PHYSOSTIGMINE]      AC50         > 30 µM

**Q:** Field: AC50 (Endothelin-1 receptor (Homo sapiens, UniProt P25101)). Entry: Nc1ccc(C(=O)O)c(O)c1 [AMINOSALICYLIC ACID]
**A:** > 30 µM

**Q:** Field: AC50 (Endothelin-1 receptor (Homo sapiens, UniProt P25101)). Entry: CCc1oc2ccccc2c1C(=O)c1cc(Br)c(O)c(Br)c1 [BENZBROMARONE]
**A:** > 30 µM
